The values you see were collected from patent US20160297884A1.

Reported koff values for the following binders.
measurement-target: T1, Human BCMA (human, UniProt Q02223 1-54, limits assumed)
T1 construct: also called huBCMA; B-cell maturation antigen
T1 sequence (looked up): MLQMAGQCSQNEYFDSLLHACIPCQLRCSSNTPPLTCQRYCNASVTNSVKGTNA
experiment-description: SPR, IgG immobilised, human BCMA analyte
API: value field is a number in s⁻¹; no unit string.

Could you tell me which koff is on file for C01_Rd4_0.6nM_C03 (antibody, V domains shown, IgG) VH: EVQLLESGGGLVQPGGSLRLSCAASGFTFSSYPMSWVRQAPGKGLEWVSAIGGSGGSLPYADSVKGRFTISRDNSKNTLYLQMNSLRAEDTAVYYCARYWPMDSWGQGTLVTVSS VL: EIVLTQSPGTLSLSPGERATLSCRASCDVSSTYLAWYQQKPGQAPRLLIYDASSRAPGIPDRFSGSGSGTDFTLTISRLEPEDFAVYYCQQYMRSPLTFGQGTKVEIK ? 0.015

Could you tell me which koff is on file for COMBO_Rd4_0.6nM_C14 (antibody, V domains shown, IgG) VH: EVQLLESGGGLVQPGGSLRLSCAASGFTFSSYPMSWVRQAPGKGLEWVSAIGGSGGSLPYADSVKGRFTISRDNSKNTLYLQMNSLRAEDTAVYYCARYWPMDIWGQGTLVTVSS VL: EIVLTQSPGTLSLSPGERATLSCRASQSVSALYLAWYQQKPGQAPRLLMYDASIRATGIPDRFSGSGSGTDFTLTISRLEPEDFAVYYCQQYYGWPLTFGQGTKVEIK ? 0.000328

Could you tell me which koff is on file for COMBO_Rd4_0.6nM_C22 (antibody, V domains shown, IgG; also called COM22) VH: EVQLLESGGGLVQPGGSLRLSCAASGFTFSSYAMNWVRQAPGKGLEWVSAISDSGGSRWYADSVKGRFTISRDNSKNTLYLQMNSLRAEDTAVYYCTRYWPMDIWGQGTLVTVSS VL: EIVLTQSPGTLSLSPGERATLSCRASVRVSSTYLAWYQQKPGQAPRLLMYDASIRATGIPDRFSGSGSGTDFTLTISRLEPEDFAVYYCQQYMKWPLTFGQGTKVEIK ? 7.15e-05
